Test: Rheological test of hydrogels (angular frequency sweep)
Type: physicochemical
Conditions: angular frequency sweep 0.1 to 100 rad/s, strain=0.8%, 25° C.
Non-standard residues stand in square brackets, D forms with d. Residues, ends and D or L forms follow the SMILES beside them. ξ: configuration not given here. *: point of attachment. Phenylacetyl(2,3,4,5,6-F5) = O=C(Cc1c(F)c(F)c(F)c(F)c1F)*; Phenylacetyl(4-F) = O=C(Cc1ccc(F)cc1)*; Ile(3ξ) = CCC(C)[C@H](N)C(=O)O; PhAc = O=C(Cc1ccccc1)*; Bz = O=C(c1ccccc1)*
Recorded measurements of storage modulus (G′), one per entry

Worked cases, answers included:
molecule	storage modulus (G′)
CCC(C)[C@H](NC(=O)c1ccccc1)C(=O)N[C@@H](CCCCN)C(=O)N[C@H](C(=O)N[C@@H](C)C(=O)N[C@H](C(=O)O)C(C)C)C(C)C (stereo partly drawn) [hydrogel (O), Benzoic Acid-Ile-Lys-Val-Ala-Val] (Bz-[Ile(3ξ)]KVAV-OH)	6×10^3 Pa
C[C@H](NC(=O)[C@H](Cc1ccccc1)NC(=O)Cc1c(F)c(F)c(F)c(F)c1F)C(=O)O [hydrogel (E), PFB-Phe-Ala]	4×10^3 Pa
O=C(Cc1c(F)c(F)c(F)c(F)c1F)N[C@@H](Cc1ccc(O)cc1)C(=O)N[C@@H](Cc1ccccc1)C(=O)O [hydrogel (C), PFB-Tyr-Phe]	5×10^3 Pa
CCC(C)[C@H](NC(=O)Cc1ccccc1)C(=O)N[C@@H](CCCCN)C(=O)N[C@H](C(=O)N[C@@H](C)C(=O)N[C@H](C(=O)O)C(C)C)C(C)C (stereo partly drawn) [hydrogel (P), Phenylacetic Acid-Ile-Lys-Val-Ala-Val] (PhAc-[Ile(3ξ)]KVAV-OH)	6×10^3 Pa
CC(C)[C@H](NC(=O)Cc1c(F)c(F)c(F)c(F)c1F)C(=O)N[C@@H](Cc1ccccc1)C(=O)O [hydrogel (G), PFB-Val-Phe]	6×10^4 Pa
CCC(C)[C@H](NC(=O)Cc1c(F)c(F)c(F)c(F)c1F)C(=O)N[C@@H](Cc1ccccc1)C(=O)O (stereo partly shown) [hydrogel (H), PFB-Ile-Phe]	1×10^4 Pa

Query: Return reported storage modulus (G′). Input molecule: O=C(Cc1c(F)c(F)c(F)c(F)c1F)NCC(=O)N[C@@H](Cc1ccccc1)C(=O)N[C@@H](Cc1ccccc1)C(=O)O [hydrogel (L), PFB-Gly-Phe-Phe]
Reply: 4×10^2 Pa

Query: Quick one: give measured storage modulus (G′) for O=C(Cc1c(F)c(F)c(F)c(F)c1F)N[C@@H](Cc1ccccc1)C(=O)O [hydrogel (A), PFB-Phe]
Reply: 2×10^3 Pa

Query: Provide measured storage modulus (G′) value, entry: CC(C)[C@H](NC(=O)[C@H](Cc1ccccc1)NC(=O)Cc1c(F)c(F)c(F)c(F)c1F)C(=O)O [hydrogel (F), PFB-Phe-Val]
Reply: 3×10^3 Pa

Query: Output measured storage modulus (G′) for this item: O=C(Cc1ccc(F)cc1)N[C@@H](Cc1ccccc1)C(=O)N[C@@H](Cc1ccccc1)C(=O)O [hydrogel (K), 4-Fluorobenzyl-Phe-Phe]
Reply: 6×10^3 Pa

Query: Identify the reported storage modulus (G′) for the following entry. O=C(Cc1c(F)c(F)c(F)c(F)c1F)N[C@@H](Cc1ccccc1)C(=O)N[C@@H](Cc1ccccc1)C(=O)O [hydrogel (D), PFB-Phe-Phe]
Reply: 2×10^4 Pa

Query: Report storage modulus (G′) for CCC(C)[C@H](NC(=O)Cc1ccc(F)cc1)C(=O)N[C@@H](CCCCN)C(=O)N[C@H](C(=O)N[C@@H](C)C(=O)N[C@H](C(=O)O)C(C)C)C(C)C (stereo partly shown) [hydrogel (N)] ({Phenylacetyl(4-F)}-[Ile(3ξ)]KVAV-OH)
Reply: 1×10^4 Pa

Query: For CCC(C)[C@H](NC(=O)Cc1c(F)c(F)c(F)c(F)c1F)C(=O)N[C@@H](CCCCN)C(=O)N[C@H](C(=O)N[C@@H](C)C(=O)N[C@H](C(=O)O)C(C)C)C(C)C (stereo partly drawn) [hydrogel (M), PFB-Ile-Lys-Val-Ala-Val] ({Phenylacetyl(2,3,4,5,6-F5)}-[Ile(3ξ)]KVAV-OH) , write its storage modulus (G′).
Reply: 1×10^3 Pa
